Recorded pIC50 by entry
- Tested on: SW480 colon cancer cells
- assay: hexoseaminidase cell proliferation assay, SW480
- Format: cell-based
- assay setup: SW480, 72 h
On this scale, pIC50 is minus log10 of a concentration expressed in M (mol/L).

These solved cases illustrate the format of a correct answer.
O=C(N/N=C/c1ccccc1O)c1cc2ccccc2cc1O [SAL] :: 5.10
C/C(=N\NC(=O)c1ccco1)c1ccc2ccccc2c1O [MRL21] :: 5.52

Field: next compound
QUERY: Identify measured pIC50 associated with O=C(N/N=C/c1cc(F)cc(F)c1)c1cc2ccccc2cc1O [MRL RFB]
RESULT: 4.46

* * *

- Tested on: MiaPaCa-2 pancreatic cancer cells
- assay: hexoseaminidase cell proliferation assay, MiaPaCa-2
- Assay type: cell-based
- assay setup: Homo sapiens, MIA PaCa-2; MiaPaCa-2, 48 h
- Method: Using hexoseaminidase assay, we determined the effect of the compounds on cell proliferation. […] The IC50 value at 48 hours is below 10 μM in all the cancer cell lines. Using hexoseaminidase assay, we determined the effect of the compounds on cell proliferation. […] The MRL16 IC50 value at 48 hours is below 0.3 μM in Colon cancer cell lines. […] Overall, the analogs can be used as chemotherapeutic agents against colon and pancreatic cancer.
Each item that follows carries a reported IC50.

C/C(=N\NC(=O)c1ccccc1)c1ccc2ccccc2c1O :: > 10 µM
COc1cc(OC)c2ccc(C=O)c(O)c2c1 [MRL, reference compound] :: > 50 µM
CC(=O)c1ccc2ccccc2c1O :: > 10 µM
C/C(=N\NC(=O)c1ccccc1O)c1ccc2ccccc2c1O :: > 10 µM

Now consider the entry below.
QUERY: Report IC50 under test system MiaPaCa-2 pancreatic cancer cells for "O=C(N/N=C/c1ccc2ccccc2n1)c1cc2ccccc2cc1O" .
RESULT: > 50 µM

* * *

List of pIC50 values.
- Tested on: PanC-1 pancreatic cancer cells
- assay: hexoseaminidase cell proliferation assay, PanC-1
- Assay type: cell-based
- assay setup: Homo sapiens, PANC-1, 72 h
pIC50: −log10 of the molar value.

Consider the reported pIC50 for these compounds:
O=C(N/N=C/c1ccc2ccccc2n1)c1cc2ccccc2cc1O :: < 4.30
C/C(=N\NC(=O)c1cc2ccccc2cc1O)c1cc2ccccc2oc1=O :: < 4.30
C/C(=N\NC(=O)Cc1cc2ccccc2[nH]1)c1ccc2ccccc2c1O :: < 5.00

QUERY: Find the measured pIC50 of "CC(=O)c1ccc2ccccc2c1O" and report it.
RESULT: < 5.00

QUERY: For the compound "CC(C)(C)C1=CC(=NNC(=O)c2cc3ccccc3cc2O)C=C(C(C)(C)C)C1=O" , give its reported pIC50.
RESULT: 5.15

* * *

- Test system: SW480 cells
- assay: cell cycle analysis, SW480
- Assay type: cell-based
- assay setup: SW480, Table 3
quantity: SubG0 Dead Cells (%)
Give the number; % is assumed, so skip it.

Some compounds with recorded SubG0 Dead Cells (%):
OC[C@H]1O[C@@H]2O[C@H]3[C@H](O)[C@@H](O)[C@@H](O[C@H]4[C@H](O)[C@@H](O)[C@@H](O[C@H]5[C@H](O)[C@@H](O)[C@@H](O[C@H]6[C@H](O)[C@@H](O)[C@@H](O[C@H]7[C@H](O)[C@@H](O)[C@@H](O[C@H]8[C@H](O)[C@@H](O)[C@@H](O[C@H]1[C@H](O)[C@H]2O)O[C@@H]8CO)O[C@@H]7CO)O[C@@H]6CO)O[C@@H]5CO)O[C@@H]4CO)O[C@@H]3CO :: 3.6
COc1cc(OC)c2ccc(C=O)c(O)c2c1 [MRL, reference compound] :: 6.0
O=C(N/N=C/c1ccc(O)c(O)c1O)c1cc2ccccc2cc1O :: 10.8

Note: attention shifts to another entry.
QUERY: Please indicate SubG0 Dead Cells (%) recorded for "O=C(N/N=C/c1ccc(O)c(O)c1)c1cc2ccccc2cc1O"
RESULT: 6.1

* * *

- Tested on: SW480 cells
- assay: cell cycle analysis, SW480
- Type: cell-based
- assay setup: SW480, Table 3
quantity: S (%)
Return type: number; implicit unit %.

COc1cc(OC)c2ccc(C=O)c(O)c2c1 [MRL, reference compound] :: 10.2

QUERY: Write down S (%) measured for item "OC[C@H]1O[C@@H]2O[C@H]3[C@H](O)[C@@H](O)[C@@H](O[C@H]4[C@H](O)[C@@H](O)[C@@H](O[C@H]5[C@H](O)[C@@H](O)[C@@H](O[C@H]6[C@H](O)[C@@H](O)[C@@H](O[C@H]7[C@H](O)[C@@H](O)[C@@H](O[C@H]8[C@H](O)[C@@H](O)[C@@H](O[C@H]1[C@H](O)[C@H]2O)O[C@@H]8CO)O[C@@H]7CO)O[C@@H]6CO)O[C@@H]5CO)O[C@@H]4CO)O[C@@H]3CO"
RESULT: 14.9

QUERY: Annotate the compound "O=C(N/N=C/c1ccc(O)c(O)c1)c1cc2ccccc2cc1O" with its measured S (%).
RESULT: 14.1

QUERY: State its S (%): "O=C(N/N=C/c1ccc(O)c(O)c1O)c1cc2ccccc2cc1O"
RESULT: 21.8

* * *

- System: HCT116 colon cancer cells
- assay: hexoseaminidase cell proliferation assay, HCT116
- Format: cell-based
- assay setup: HCT116, 72 h; listed as THB
quantity: IC50 (µM)
Write it as a number; the unit µM goes unstated.

QUERY: Return IC50 (reported value) for this molecule: O=C(N/N=C/c1ccc(O)c(O)c1O)c1cc2ccccc2cc1O [MRL THB]
RESULT: 8

* * *

- Tested on: colon, pancreatic and bladder cancer cells
- assay: hexoseaminidase cell proliferation assay, summaries over cell lines
- Assay type: cell-based
- assay setup: 48 hours, Colon cancer cell lines
pIC50: −log10 of the molar value.
quantity: pIC50

QUERY: Give reported pIC50 for "C/C(=N\NC(=O)c1ccncc1)c1ccc2ccccc2c1O" (colon, pancreatic and bladder cancer cells)
RESULT: > 6.52

* * *

Consider the following molecules and their measured G2M (%) readings.
- Tested on: HCT116 cells
- assay: cell cycle analysis, HCT116
- Type: cell-based
- assay setup: HCT116, Table 3
# output: bare number, implied unit %

Known G2M (%) results, listed for orientation:
OC[C@H]1O[C@@H]2O[C@H]3[C@H](O)[C@@H](O)[C@@H](O[C@H]4[C@H](O)[C@@H](O)[C@@H](O[C@H]5[C@H](O)[C@@H](O)[C@@H](O[C@H]6[C@H](O)[C@@H](O)[C@@H](O[C@H]7[C@H](O)[C@@H](O)[C@@H](O[C@H]8[C@H](O)[C@@H](O)[C@@H](O[C@H]1[C@H](O)[C@H]2O)O[C@@H]8CO)O[C@@H]7CO)O[C@@H]6CO)O[C@@H]5CO)O[C@@H]4CO)O[C@@H]3CO :: 10.9
COc1cc(OC)c2ccc(C=O)c(O)c2c1 [MRL, reference compound] :: 11.4

QUERY: Given "O=C(N/N=C/c1ccc(O)c(O)c1O)c1cc2ccccc2cc1O" , respond with its G2M (%).
RESULT: 19.7

QUERY: For "O=C(N/N=C/c1ccc(O)c(O)c1)c1cc2ccccc2cc1O" , write its G2M (%).
RESULT: 10.4

* * *

- Test system: HCT116 colon cancer cells
- assay: hexoseaminidase cell proliferation assay, HCT116
- Format: cell-based
- assay setup: HCT116, 24 h
quantity: pIC50
A value of pIC50 is the negative decimal logarithm of a concentration given in moles per litre.

O=C(N/N=C/c1ccccc1O)c1cc2ccccc2cc1O [SAL] :: 4.60

With those in mind, consider the next compound.
QUERY: For the compound C/C(=N\NC(=O)c1ccco1)c1ccc2ccccc2c1O [MRL21] , report pIC50.
RESULT: 5.00

* * *

- System: MiaPaCa-2 pancreatic cancer cells
- assay: hexoseaminidase cell proliferation assay, MiaPaCa-2
- Type: cell-based
- assay setup: Homo sapiens, MIA PaCa-2; MiaPaCa-2, 48 h
- Method: Using hexoseaminidase assay, we determined the effect of the compounds on cell proliferation. […] The IC50 value at 48 hours is below 10 μM in all the cancer cell lines. Using hexoseaminidase assay, we determined the effect of the compounds on cell proliferation. […] The MRL16 IC50 value at 48 hours is below 0.3 μM in Colon cancer cell lines. […] Overall, the analogs can be used as chemotherapeutic agents against colon and pancreatic cancer.
// reported IC50 for each item listed

Illustrative cases are given below, each with its answer.
CC(C)(C)C1=CC(=NNC(=O)c2cc3ccccc3cc2O)C=C(C(C)(C)C)C1=O :: 8 µM
C/C(=N\NC(=O)c1ccc(O)cc1)c1ccc2ccccc2c1O :: > 10 µM

Let's switch to this molecule now.
QUERY: // Input: "OC[C@H]1O[C@@H]2O[C@H]3[C@H](O)[C@@H](O)[C@@H](O[C@H]4[C@H](O)[C@@H](O)[C@@H](O[C@H]5[C@H](O)[C@@H](O)[C@@H](O[C@H]6[C@H](O)[C@@H](O)[C@@H](O[C@H]7[C@H](O)[C@@H](O)[C@@H](O[C@H]8[C@H](O)[C@@H](O)[C@@H](O[C@H]1[C@H](O)[C@H]2O)O[C@@H]8CO)O[C@@H]7CO)O[C@@H]6CO)O[C@@H]5CO)O[C@@H]4CO)O[C@@H]3CO" . Output its IC50 only.
RESULT: > 50 µM
